Target: mGluR5 receptor (Sus scrofa, UniProt I3LUI7)
Construct: 450 μg of protein from brain homogenate with 5 nM ^3[H]-MPEP; from tissue; host or cells: pig brain halves without medulla, cerebellum and pons
Sequence (I3LUI7 19-1212): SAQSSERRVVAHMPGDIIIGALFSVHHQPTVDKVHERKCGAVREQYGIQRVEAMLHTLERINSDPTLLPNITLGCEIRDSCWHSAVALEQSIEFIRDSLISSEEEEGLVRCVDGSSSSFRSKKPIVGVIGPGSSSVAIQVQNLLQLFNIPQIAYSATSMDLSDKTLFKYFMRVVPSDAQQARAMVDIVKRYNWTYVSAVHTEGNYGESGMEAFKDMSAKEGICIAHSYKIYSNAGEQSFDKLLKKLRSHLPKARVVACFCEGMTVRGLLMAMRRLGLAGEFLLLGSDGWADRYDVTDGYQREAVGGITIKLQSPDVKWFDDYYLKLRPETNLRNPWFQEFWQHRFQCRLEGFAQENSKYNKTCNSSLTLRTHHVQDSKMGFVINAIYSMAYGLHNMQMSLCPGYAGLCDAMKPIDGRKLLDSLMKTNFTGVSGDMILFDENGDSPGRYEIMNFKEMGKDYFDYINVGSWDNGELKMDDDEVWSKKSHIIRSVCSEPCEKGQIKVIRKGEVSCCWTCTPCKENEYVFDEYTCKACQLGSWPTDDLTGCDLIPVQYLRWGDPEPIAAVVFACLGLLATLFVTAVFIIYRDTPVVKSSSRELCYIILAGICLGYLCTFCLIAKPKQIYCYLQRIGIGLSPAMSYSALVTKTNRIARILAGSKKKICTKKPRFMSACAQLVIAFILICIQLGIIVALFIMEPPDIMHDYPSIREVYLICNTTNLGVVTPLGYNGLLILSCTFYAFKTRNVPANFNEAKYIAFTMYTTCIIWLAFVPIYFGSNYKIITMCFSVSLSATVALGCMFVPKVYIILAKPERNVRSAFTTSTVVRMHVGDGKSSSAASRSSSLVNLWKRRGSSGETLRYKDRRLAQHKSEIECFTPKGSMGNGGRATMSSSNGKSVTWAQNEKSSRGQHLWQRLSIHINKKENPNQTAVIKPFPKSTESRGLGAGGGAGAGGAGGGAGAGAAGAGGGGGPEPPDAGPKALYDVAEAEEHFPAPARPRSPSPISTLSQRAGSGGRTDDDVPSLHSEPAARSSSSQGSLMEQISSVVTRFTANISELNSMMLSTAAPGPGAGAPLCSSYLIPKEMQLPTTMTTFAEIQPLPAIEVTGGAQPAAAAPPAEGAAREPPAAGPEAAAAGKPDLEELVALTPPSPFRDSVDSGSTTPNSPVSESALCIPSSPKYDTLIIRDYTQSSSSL
Test: [3H]-MPEP mGluR5 receptor binding assay (pig brain homogenate)
Details: 10 μM compound, 5 nM [3H]-MPEP, read-out: % Inhibition of mGluR5 Receptor (pig) [^3H]-MPEP Bond at 10 μM
Outcome label depends on inhibition at 10 µM relative to 80%: at/above gives yes (1), below gives no (0).

Exam item: Please check the record CC(=O)N(Cc1cccc(-c2ccc3ncnc(NCCc4ccccc4)c3c2)c1)C1CC1 [Example 393] and state if its inhibition at 10 µM is at or above 80%.
Marked response: yes (1)

Exam item: Please check the record O=C(Cc1ccccn1)N(Cc1cccc(-c2ccc3ncnc(NC4CC4)c3c2)c1)C1CC1 [Example 174] and state if its inhibition at 10 µM is at or above 80%.
Marked response: yes (1)

Exam item: Please check the record Cc1nc(C(=O)N(Cc2cccc(-c3cc4c(NC5CC5)ncnc4cc3C)c2)C2CC2)cs1 [Example 759] and state if its inhibition at 10 µM is at or above 80%.
Marked response: yes (1)

Exam item: Please check the record Cc1nc(NC2CC2)c2cc(-c3ccc(F)c(CN(C(=O)Cc4ccccc4)C4CC4)c3)ccc2n1 [Example 644] and state if its inhibition at 10 µM is at or above 80%.
Marked response: yes (1)

Exam item: Please check the record O=C(c1cc2ccccc2cn1)N(Cc1cccc(-c2ccc3ncnc(N4CCCC4)c3c2)c1)C1CC1 [Example 125] and state if its inhibition at 10 µM is at or above 80%.
Marked response: no (0)

Exam item: Please check the record CC(C)(C)C(=O)N(Cc1cc(-c2ccc3ncnc(NC4CC4)c3c2)ccn1)C1CC1 [Example 828] and state if its inhibition at 10 µM is at or above 80%.
Marked response: no (0)

Exam item: Please check the record COc1ccc(CNc2ncnc3ccc(-c4cccc(CN(C(=O)CN(C)C)C5CC5)c4)cc23)c(OC)c1 [Example 689] and state if its inhibition at 10 µM is at or above 80%.
Marked response: no (0)

Exam item: Please check the record CNc1ncnc2ccc(-c3cccc(CN(C(=O)c4ccno4)c4ccccc4F)c3)cc12 [Example 671] and state if its inhibition at 10 µM is at or above 80%.
Marked response: no (0)

---

So I've got a bunch of compounds here, and I need their % Inhibition of mGluR5 Receptor (pig) [^3H]-MPEP Bond at 10 μM values.
Biological target: mGluR5 receptor (Sus scrofa)
Construct: 450 μg of protein from brain homogenate with 5 nM ^3[H]-MPEP; from tissue; host or cells: pig brain halves without medulla, cerebellum and pons
Assay: [3H]-MPEP mGluR5 receptor binding assay (pig brain homogenate)
Conditions: 10 μM compound, 5 nM [3H]-MPEP
Give just the number in %; leave the unit off.

Exam item: Provide % Inhibition of mGluR5 Receptor (pig) [^3H]-MPEP Bond at 10 μM, recorded with mGluR5 receptor (Sus scrofa), of O=S(=O)(c1ccc(Cl)cc1Cl)N(Cc1cc(-c2ccc3ncnc(NC4CC4)c3c2)ccn1)C1CC1
Marked response: 78

Exam item: Provide % Inhibition of mGluR5 Receptor (pig) [^3H]-MPEP Bond at 10 μM, recorded with mGluR5 receptor (Sus scrofa), of COc1ccc(S(=O)(=O)N(Cc2cccc(-c3cc(F)c4ncnc(NC5CC5)c4c3)c2)C2CC2)cc1
Marked response: 82

Exam item: Provide % Inhibition of mGluR5 Receptor (pig) [^3H]-MPEP Bond at 10 μM, recorded with mGluR5 receptor (Sus scrofa), of CCCCC(=O)N(C)Cc1cc(-c2ccc3ncnc(NCc4ccccc4)c3c2)ccc1F
Marked response: 32

Exam item: Provide % Inhibition of mGluR5 Receptor (pig) [^3H]-MPEP Bond at 10 μM, recorded with mGluR5 receptor (Sus scrofa), of CC(C)S(=O)(=O)N(Cc1cc(-c2ccc3ncnc(NC4CC4)c3c2)ccc1Cl)C1CC1
Marked response: 75

Exam item: Provide % Inhibition of mGluR5 Receptor (pig) [^3H]-MPEP Bond at 10 μM, recorded with mGluR5 receptor (Sus scrofa), of CCCCC(=O)N(Cc1cc(-c2ccc3ncnc(NC4CC4)c3c2)ccc1Cl)C1CC1
Marked response: 94

Exam item: Provide % Inhibition of mGluR5 Receptor (pig) [^3H]-MPEP Bond at 10 μM, recorded with mGluR5 receptor (Sus scrofa), of O=S(=O)(c1ccc(Cl)cc1Cl)N(Cc1cccc(-c2cc(F)c3ncnc(NC4CC4)c3c2)c1)C1CC1
Marked response: 50

Exam item: Provide % Inhibition of mGluR5 Receptor (pig) [^3H]-MPEP Bond at 10 μM, recorded with mGluR5 receptor (Sus scrofa), of CC(C)(C)Nc1ncnc2ccc(-c3ccc(F)c(CN(C(=O)c4cc(Cl)cc(Cl)c4)C4CC4)c3)cc12
Marked response: 48

Exam item: Provide % Inhibition of mGluR5 Receptor (pig) [^3H]-MPEP Bond at 10 μM, recorded with mGluR5 receptor (Sus scrofa), of CCCCC(=O)N(Cc1cc(-c2ccc3ncnc(NC(C)(C)C)c3c2)ccc1F)C1CC1
Marked response: 89

Exam item: Provide % Inhibition of mGluR5 Receptor (pig) [^3H]-MPEP Bond at 10 μM, recorded with mGluR5 receptor (Sus scrofa), of O=C(c1cccnc1)N(Cc1cc(-c2ccc3ncnc(NC4CC4)c3c2)ccc1Cl)C1CC1
Marked response: 84

Exam item: Provide % Inhibition of mGluR5 Receptor (pig) [^3H]-MPEP Bond at 10 μM, recorded with mGluR5 receptor (Sus scrofa), of Cc1cc2ncnc(NC3CC3)c2cc1-c1cccc(CN(C2CC2)S(=O)(=O)c2ccc(Cl)cc2Cl)c1
Marked response: 40

Exam item: Provide % Inhibition of mGluR5 Receptor (pig) [^3H]-MPEP Bond at 10 μM, recorded with mGluR5 receptor (Sus scrofa), of CC(C)(C)Nc1ncnc2ccc(-c3ccc(F)c(CN(C(=O)c4ccno4)C4CC4)c3)cc12
Marked response: 42

Exam item: Provide % Inhibition of mGluR5 Receptor (pig) [^3H]-MPEP Bond at 10 μM, recorded with mGluR5 receptor (Sus scrofa), of O=S(=O)(c1ccccc1)N(Cc1cc(-c2ccc3ncnc(NC4CC4)c3c2)ccc1Cl)C1CC1
Marked response: 92

Exam item: Provide % Inhibition of mGluR5 Receptor (pig) [^3H]-MPEP Bond at 10 μM, recorded with mGluR5 receptor (Sus scrofa), of O=S(=O)(c1cccc(C(F)(F)F)c1)N(Cc1cc(-c2ccc3ncnc(NC4CC4)c3c2)ccc1F)C1CC1
Marked response: 34

---

Molecular target: mGluR5 receptor (Sus scrofa, UniProt I3LUI7)
Construct: 450 μg of protein from brain homogenate with 5 nM ^3[H]-MPEP; from tissue; host or cells: pig brain halves without medulla, cerebellum and pons
Test: [3H]-MPEP mGluR5 receptor binding assay (pig brain homogenate)
Conditions: 10 μM compound, 5 nM [3H]-MPEP, read-out: % Inhibition of mGluR5 Receptor (pig) [^3H]-MPEP Bond at 10 μM
METRIC_NAME: inhibition at 10 µM (%)
Give just the number in %; leave the unit off.

Exam item: Name the recorded inhibition at 10 µM of the item Cc1cc(C(=O)N(Cc2cccc(-c3ccc4ncnc(NCCc5ccccc5)c4c3)c2)C2CC2)n(C)n1 in your answer.
Marked response: 34

Exam item: Name the recorded inhibition at 10 µM of the item CN(C)CC(=O)N(Cc1cc(-c2ccc3ncnc(NC4CC4)c3c2)ccn1)C1CC1 in your answer.
Marked response: 47

Exam item: Name the recorded inhibition at 10 µM of the item Cc1cc2ncnc(NC3CC3)c2cc1-c1cccc(CN(C(=O)c2ccc(C(F)(F)F)cc2F)C2CC2)c1 in your answer.
Marked response: 88

Exam item: Name the recorded inhibition at 10 µM of the item CNc1ncnc2ccc(-c3ccc(F)c(CN(C)C(=O)c4ccc(C(F)(F)F)cc4F)c3)cc12 in your answer.
Marked response: 52

Exam item: Name the recorded inhibition at 10 µM of the item Cc1cc(C(=O)N(Cc2cc(-c3ccc4ncnc(NC(C)(C)C)c4c3)ccc2F)C2CC2)n(C)n1 in your answer.
Marked response: 84

---

Target: mGluR5 receptor (Sus scrofa)
Construct: 450 μg of protein from brain homogenate with 5 nM ^3[H]-MPEP; from tissue; host or cells: pig brain halves without medulla, cerebellum and pons
Assay: [3H]-MPEP mGluR5 receptor binding assay (pig brain homogenate)
Settings: 5 nM [3H]-MPEP, read-out: IC50 mGluR5 Receptor (pig) [^3H]-MPEP Bond
Structures can show the parent of a compound that is named as a salt.
Lab note: cut-off is 3 µM. Strictly less in IC50 is met. Exactly 3 µM or more is not met.

Exam item: Hello, is IC50 of the following compound strictly smaller than 3 µM? CN(c1ncnc2ccc(-c3cccc(CN(C(=O)c4ccccn4)C4CC4)c3)cc12)C1CC1
Marked response: not met

Exam item: Hello, is IC50 of the following compound strictly smaller than 3 µM? CS(=O)(=O)N(Cc1cccc(-c2ccc3ncnc(NC4CC4)c3c2)c1)C1CC1
Marked response: met

Exam item: Hello, is IC50 of the following compound strictly smaller than 3 µM? CC(=O)N(Cc1cccc(-c2ccc3ncnc(NC4CC4)c3c2)c1)c1ccccc1 [Example 207, hydrochloride]
Marked response: not met

Exam item: Hello, is IC50 of the following compound strictly smaller than 3 µM? COCC(=O)N(Cc1cc(-c2ccc3ncnc(NC4CC4)c3c2)ccc1F)C1CC1
Marked response: met

Exam item: Hello, is IC50 of the following compound strictly smaller than 3 µM? O=C(c1ccccn1)N(Cc1cccc(-c2cc(F)c3ncnc(NC4CC4)c3c2)c1)C1CC1
Marked response: met

Exam item: Hello, is IC50 of the following compound strictly smaller than 3 µM? COc1ccc(CN(C(C)=O)C2CC2)cc1-c1ccc2ncnc(NC3CC3)c2c1
Marked response: met

Exam item: Hello, is IC50 of the following compound strictly smaller than 3 µM? CC(=O)N(C1CC1)C(C)c1cccc(-c2ccc3ncnc(NC4CC4)c3c2)c1 (centres unmarked)
Marked response: not met

Exam item: Hello, is IC50 of the following compound strictly smaller than 3 µM? COC(=O)N(Cc1cccc(-c2ccc3ncnc(NC4CC4)c3c2)c1)C1CC1
Marked response: met

Exam item: Hello, is IC50 of the following compound strictly smaller than 3 µM? CC(=O)N(CCc1ccccc1)Cc1cccc(-c2ccc3ncnc(NC4CC4)c3c2)c1
Marked response: not met

Exam item: Hello, is IC50 of the following compound strictly smaller than 3 µM? CN1CCN(Cc2cccc(-c3ccc4ncnc(NC5CC5)c4c3)c2)C1=O
Marked response: not met

Exam item: Hello, is IC50 of the following compound strictly smaller than 3 µM? c1ccc(N(Cc2cccc(-c3ccc4ncnc(NC5CC5)c4c3)c2)C2CC2)nc1
Marked response: met

Exam item: Hello, is IC50 of the following compound strictly smaller than 3 µM? CCCCNc1ncnc2ccc(-c3cccc(CN4C(=O)CCC4=O)c3)cc12 [Example 286, hydrochloride]
Marked response: met

Exam item: Hello, is IC50 of the following compound strictly smaller than 3 µM? O=C(N(Cc1cc(-c2ccc3ncnc(NC4CC4)c3c2)ccc1F)C1CC1)C(F)(F)F
Marked response: met

Exam item: Hello, is IC50 of the following compound strictly smaller than 3 µM? CC(=O)N(Cc1c(F)ccc(-c2ccc3ncnc(NC4CC4)c3c2)c1F)C1CC1
Marked response: met

Exam item: Hello, is IC50 of the following compound strictly smaller than 3 µM? CC(C)NC(=O)N(Cc1cccc(-c2ccc3ncnc(NC4CC4)c3c2)c1)C1CC1
Marked response: not met

Exam item: Hello, is IC50 of the following compound strictly smaller than 3 µM? CNc1ncnc2ccc(-c3cccc(CN4C(=O)CCC4=O)c3)cc12
Marked response: not met

Exam item: Hello, is IC50 of the following compound strictly smaller than 3 µM? O=S(=O)(CC(F)(F)F)N(Cc1cccc(-c2ccc3ncnc(NC4CC4)c3c2)c1)C1CC1
Marked response: met

Exam item: Hello, is IC50 of the following compound strictly smaller than 3 µM? O=C(c1cccnc1)N(Cc1cccc(-c2ccc3ncnc(NC4CC4)c3c2)c1)C1CC1
Marked response: not met

Exam item: Hello, is IC50 of the following compound strictly smaller than 3 µM? O=C1CCCN1Cc1cccc(-c2ccc3ncnc(NC4CC4)c3c2)c1 [Example 217, hydrochloride]
Marked response: met

Exam item: Hello, is IC50 of the following compound strictly smaller than 3 µM? O=C(CC(F)(F)F)N(Cc1cc(-c2ccc3ncnc(NC4CC4)c3c2)ccc1F)C1CC1
Marked response: met

Exam item: Hello, is IC50 of the following compound strictly smaller than 3 µM? COCC(=O)N(Cc1cccc(-c2ccc3ncnc(NC4CC4)c3c2)c1)C1CC1
Marked response: met

Exam item: Hello, is IC50 of the following compound strictly smaller than 3 µM? O=C(c1ccccc1)N(Cc1c(F)ccc(-c2ccc3ncnc(NC4CC4)c3c2)c1F)C1CC1
Marked response: met

Exam item: Hello, is IC50 of the following compound strictly smaller than 3 µM? O=S(=O)(c1ccc(C(F)(F)F)cc1)N(Cc1cccc(-c2ccc3ncnc(NC4CC4)c3c2)c1)C1CC1
Marked response: met
